Data credit: PubChem BioAssay (NCATS)

# EXPERIMENT SUMMARY: BET inhibitor-based combinations targeting novel dependencies in MECOM-rearranged (r) AML: HNT-34 cell line (AID 2202234); note: nearly all actives have a fitted effect of over 35% in size
# STATED CONDITIONS: HNT-34 AML viability, CellTiter-Glo luminescence, 48 h; series mostly up to 46 µM
Results filed as inconclusive are left out. The source made the active and inactive calls. Calls come from the whole dose curve; as a rule, active = well fitted inhibition curve with a large enough effect; inconclusive = small, poorly fitted or top-dose-only effect; inactive = no such curve, though single readings can be large or run the other way.
Choose the fitting class; nothing outside active, inactive is accepted.

>  <SMILES STRUCTURE>
O=C(/C=C/c1cccc(S(=O)(=O)Nc2ccccc2)c1)NO

>  <CAT>
active

$$$$
>  <SMILES STRUCTURE>
COc1ncc(-c2ccc3c(Nc4cc(Oc5cc(F)cc(F)c5)cc(C(=O)O)c4)c(S(=O)(=O)NC4CC4)cnc3c2)c(OC)n1

>  <CAT>
inactive

$$$$
>  <SMILES STRUCTURE>
O=C(CN1C(=O)C2(CCCC2)NC[C@H]1c1cc(F)cc(F)c1)Nc1ccc2c(c1)C[C@@]1(C2)C(=O)Nc2ncccc21

>  <CAT>
inactive

$$$$

Qu. // param item: "O=C(Nc1ccc2[nH]nc(-c3ccncc3)c2c1)[C@@H]1CCN(CC(=O)N2CCN(c3ccc(-c4ncccn4)cc3)CC2)C1" ; yields the recorded call
Ans. active

Qu. // param item: "Cc1ncc(NC(=O)c2ccc(CN3CCN(C)CC3)c(C(F)(F)F)c2)cc1Nc1nccc(-c2cccnc2)n1" ; yields the recorded call
Ans. active

---

# TARGET OF ASSAY: Cellular tumor antigen p53 (Homo sapiens) (UniProt P04637)
# Sequence (P04637 whole entry, looked up): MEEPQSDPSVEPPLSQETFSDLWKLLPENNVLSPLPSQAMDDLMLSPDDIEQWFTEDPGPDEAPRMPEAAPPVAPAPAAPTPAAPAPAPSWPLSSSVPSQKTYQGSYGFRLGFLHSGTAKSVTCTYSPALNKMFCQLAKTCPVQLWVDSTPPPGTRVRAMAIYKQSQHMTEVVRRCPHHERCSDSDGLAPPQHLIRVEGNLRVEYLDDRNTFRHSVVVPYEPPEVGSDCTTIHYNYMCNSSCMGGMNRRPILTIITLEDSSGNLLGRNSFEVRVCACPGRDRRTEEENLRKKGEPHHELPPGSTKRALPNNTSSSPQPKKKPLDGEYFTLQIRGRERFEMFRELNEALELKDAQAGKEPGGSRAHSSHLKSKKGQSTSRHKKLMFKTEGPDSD
# EXPERIMENT SUMMARY: Primary qHTS for small molecule compounds that upregulate eGFP-tagged delta133p53alpha (in N-terminal) cells. (AID 2060322);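 note: cells pre-induced with doxycycline then dosed without doxycycline; 0% = DMSO vehicle and 100% = reference activator; nearly all actives have a fitted effect of over 75% in size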
# STATED CONDITIONS: NCI-H358 eGFP-delta133p53alpha fluorescence, 24 h; active compounds read high
Inconclusive results are not listed.
Reported values of activation for individual entries
Output spec: scalar in %, unitless text.

Example entries begin here.
>  <MOLECULE>
CC(=O)N[C@H]1[C@H](O[C@H]2CC[C@@]3(C)C(CC[C@]4(C)C3CC=C3C5CC(C)(C)CC[C@]5(C(=O)O)C(O)C[C@]34C)C2(C)C)O[C@H](CO[C@@H]2O[C@H](C)[C@H](O)[C@H](O)[C@H]2O[C@@H]2OC[C@@H](O)[C@H](O)[C@H]2O)[C@@H](O)[C@@H]1O (stereo partly drawn)

>  <TARGET OF ASSAY>
Cellular tumor antigen p53 (Homo sapiens) (UniProt P04637)

>  <activation (%)>
13.4

$$$$
>  <MOLECULE>
N=C(N)SCCc1cnc[nH]1

>  <TARGET OF ASSAY>
Cellular tumor antigen p53 (Homo sapiens) (UniProt P04637)

>  <activation (%)>
-28.5

$$$$

# next molecule below
# activation of CC(C)=CCC[C@](C)(O)[C@H]1CC[C@]2(C)[C@@H]1[C@H](O)CC1[C@@]3(C)CC[C@H](O)C(C)(C)C3[C@@H](O[C@@H]3O[C@H](CO)[C@@H](O)[C@H](O)[C@H]3O[C@@H]3OC[C@@H](O)[C@H](O)[C@H]3O)C[C@]12C (stereo partly drawn) = -16.8

---

# EXPERIMENT SUMMARY: BET inhibitor-based combinations targeting novel dependencies in MECOM-rearranged (r) AML: OCI-AML3 cell line (AID 2202232); note: nearly all actives have a fitted effect of over 35% in size
# STATED CONDITIONS: CellTiter-Glo luminescence, 48 h; OCI-AML3 viability; series mostly up to 46 µM
Inconclusive results are not listed. Active and inactive are the calls of the source. Calls follow the shape of the dose curve; as a rule, active = well fitted inhibition curve with a large enough effect; inconclusive = small, poorly fitted or top-dose-only effect; inactive = no such curve, though single readings can be large or run the other way.
Choose the fitting class; nothing outside T = active, F = inactive is accepted.

Sample answers from the record:
>  <MOLECULE>
COc1cccc(OC)c1-c1cc(C(=O)NC2(C(=O)O)C3CC4CC(C3)CC2C4)nn1-c1ccnc2cc(Cl)ccc12 (centres undefined)

>  <CAT>
F

$$$$
>  <MOLECULE>
COc1ccc([C@@H]2CNC(=O)C2)cc1OC1CCCC1

>  <CAT>
F

$$$$
>  <MOLECULE>
O=c1ccn([C@@H]2O[C@H](CO)[C@@H](O)[C@H]2O)c(=O)[nH]1

>  <CAT>
F

$$$$
>  <MOLECULE>
CC(C)C[C@H](NC(=O)[C@H](CCc1ccccc1)NC(=O)CN1CCOCC1)C(=O)N[C@@H](Cc1ccccc1)C(=O)N[C@@H](CC(C)C)C(=O)[C@@]1(C)CO1

>  <CAT>
T

$$$$
>  <MOLECULE>
CCOC(=O)C1=C(O)C(=O)N(Cc2ccccc2)C1

>  <CAT>
F

$$$$

Qu. // param item: O=C(O)C(O)Cc1ccc(O)c(O)c1 (centres undefined) ; yields the recorded call
Ans. F

Qu. // param item: "CCN1CCN(CC(=O)Nc2ccc(-c3cccc4c(=O)cc(N5CCOCC5)oc34)c3sc4ccccc4c23)CC1" ; yields the recorded call
Ans. T

Qu. // param item: "CC(C)[C@H](O)C(=O)N[C@@H](C)C(=O)N[C@@H]1C(=O)N(C)CCc2ccccc21" ; yields the recorded call
Ans. F

Qu. // param item: "CNC(=O)c1cc(Oc2ccc(NC(=O)Nc3ccc(Cl)c(C(F)(F)F)c3)cc2)ccn1" ; yields the recorded call
Ans. T

---

# EXPERIMENT SUMMARY: BET inhibitor-based combinations targeting novel dependencies in MECOM-rearranged (r) AML: UCSD-AML1 cell line (AID 2202235); note: nearly all actives have a fitted effect of over 40% in size
# STATED CONDITIONS: UCSD-AML1 AML cells viability, CellTiter-Glo, 48 h; series mostly up to 46 µM
Records with an inconclusive call do not appear. Activity calls are given as the source filed them. Calls follow the shape of the dose curve; as a rule, active = well fitted inhibition curve with a large enough effect; inconclusive = small, poorly fitted or top-dose-only effect; inactive = no such curve, though single readings can be large or run the other way.
Choose the fitting class; nothing outside active, inactive is accepted.

Sample answers from the record:
>  <COMPOUND>
Cc1ccc(NC(=O)c2ccc(CN3CCN(C)CC3)cc2)cc1Nc1nc(-c2cccnc2)cs1

>  <CAT>
inactive

$$$$
>  <COMPOUND>
COc1cccc(-c2cc(F)ccc2C2Cc3nc(N)nc(C)c3C(=O)N2)n1 (stereo not given)

>  <CAT>
active

$$$$

Qu. // param item: "CC1(C)CCC2=C(O1)c1ccccc1C(=O)C2=O" ; yields the recorded call
Ans. active

Qu. // param item: C[C@@H](N)C1CCC(C(=O)Nc2ccncc2)CC1 (stereo not given in full) ; yields the recorded call
Ans. inactive

Qu. // param item: "Cc1cc(N2CCOCC2)cc2[nH]c(-c3c(NC[C@@H](O)c4cccc(Cl)c4)cc[nH]c3=O)nc12" ; yields the recorded call
Ans. active

---

# TARGET OF ASSAY: Retinaldehyde dehydrogenase 3 (Homo sapiens) (UniProt P47895)
# EXPERIMENT SUMMARY: qHTS for Inhibitors of the Aldehyde Dehydrogenase Family (ALDH1A3) Confirmatory screens (AID 2061311); note: nearly all actives have a fitted effect of over 60% in size
# STATED CONDITIONS: ALDH inhibition qHTS; series mostly up to 46 µM
Inconclusive results are not listed. The source made the active and inactive calls. The call rests on the fitted dose curve; in most records, active means well fitted inhibition curve with a large enough effect; inconclusive means small, poorly fitted or top-dose-only effect; inactive means no such curve, though single readings can be large or run the other way.
Choose the fitting class; nothing outside label 1 for active, label 0 for inactive is accepted.

>  <MOLECULE>
N#Cc1c(-c2ccc(F)cc2)no[n+]1[O-]

>  <TARGET OF ASSAY>
Retinaldehyde dehydrogenase 3 (Homo sapiens) (UniProt P47895)

>  <CAT>
label 0

$$$$
>  <MOLECULE>
O=C(O)/C(=C/c1c(C(=O)O)[nH]c2cc(Cl)cc(Cl)c12)c1ccccc1

>  <TARGET OF ASSAY>
Retinaldehyde dehydrogenase 3 (Homo sapiens) (UniProt P47895)

>  <CAT>
label 0

$$$$
>  <MOLECULE>
CC1CN(S(=O)(=O)c2cccc3cnccc23)CCN1 (centres undefined)

>  <TARGET OF ASSAY>
Retinaldehyde dehydrogenase 3 (Homo sapiens) (UniProt P47895)

>  <CAT>
label 0

$$$$
>  <MOLECULE>
CCOC(=O)c1cnn(-c2ccc(NC(=O)C(Cl)=C(Cl)Cl)cc2)c1C(F)(F)F

>  <TARGET OF ASSAY>
Retinaldehyde dehydrogenase 3 (Homo sapiens) (UniProt P47895)

>  <CAT>
label 1

$$$$
>  <MOLECULE>
Cc1ccc(S(=O)(=O)NC(N)=NCCC[C@@H](NC(=O)CNC(=O)c2ccccc2)C(=O)Nc2cc(C(F)(F)F)ccc2Cl)cc1

>  <TARGET OF ASSAY>
Retinaldehyde dehydrogenase 3 (Homo sapiens) (UniProt P47895)

>  <CAT>
label 0

$$$$

Qu. // param item: "Nc1ccc(S(=O)(=O)N2CCN(S(=O)(=O)c3c(F)cccc3F)CC2)cc1" ; yields the recorded call
Ans. label 0

Qu. // param item: "CCOc1ccc(-c2nc(CSCC(=O)N3CCN(c4cccc(C(F)(F)F)c4)CC3)c(C)o2)cc1" ; yields the recorded call
Ans. label 1

Qu. // param item: O=C(/C=C/c1ccc(O)c(O)c1)O[C@@H]1[C@@H](O)[C@H](OC2CCCCC2O)O[C@H](CO)[C@H]1O (some centres undefined) ; yields the recorded call
Ans. label 1

Qu. // param item: "O=[N+]([O-])c1ccc(CNc2ccc([S+](=O)([O-])Nc3nccs3)cc2)c(O)c1" ; yields the recorded call
Ans. label 0

Qu. // param item: "CC(C)(C)OC(=O)N1CCN(c2ccc(NCc3cccc(-c4ccc(C#N)cc4)n3)cc2)CC1" ; yields the recorded call
Ans. label 0

Qu. // param item: "O=C(C1CCN(c2nc(-c3ccc(Br)cc3)cs2)CC1)N1CCOCC1" ; yields the recorded call
Ans. label 0
